Recorded pIC50 for the following compounds
- target or system: human TLR8 (Homo sapiens, UniProt Q9NR97)
- Sequence (Q9NR97 27-1041): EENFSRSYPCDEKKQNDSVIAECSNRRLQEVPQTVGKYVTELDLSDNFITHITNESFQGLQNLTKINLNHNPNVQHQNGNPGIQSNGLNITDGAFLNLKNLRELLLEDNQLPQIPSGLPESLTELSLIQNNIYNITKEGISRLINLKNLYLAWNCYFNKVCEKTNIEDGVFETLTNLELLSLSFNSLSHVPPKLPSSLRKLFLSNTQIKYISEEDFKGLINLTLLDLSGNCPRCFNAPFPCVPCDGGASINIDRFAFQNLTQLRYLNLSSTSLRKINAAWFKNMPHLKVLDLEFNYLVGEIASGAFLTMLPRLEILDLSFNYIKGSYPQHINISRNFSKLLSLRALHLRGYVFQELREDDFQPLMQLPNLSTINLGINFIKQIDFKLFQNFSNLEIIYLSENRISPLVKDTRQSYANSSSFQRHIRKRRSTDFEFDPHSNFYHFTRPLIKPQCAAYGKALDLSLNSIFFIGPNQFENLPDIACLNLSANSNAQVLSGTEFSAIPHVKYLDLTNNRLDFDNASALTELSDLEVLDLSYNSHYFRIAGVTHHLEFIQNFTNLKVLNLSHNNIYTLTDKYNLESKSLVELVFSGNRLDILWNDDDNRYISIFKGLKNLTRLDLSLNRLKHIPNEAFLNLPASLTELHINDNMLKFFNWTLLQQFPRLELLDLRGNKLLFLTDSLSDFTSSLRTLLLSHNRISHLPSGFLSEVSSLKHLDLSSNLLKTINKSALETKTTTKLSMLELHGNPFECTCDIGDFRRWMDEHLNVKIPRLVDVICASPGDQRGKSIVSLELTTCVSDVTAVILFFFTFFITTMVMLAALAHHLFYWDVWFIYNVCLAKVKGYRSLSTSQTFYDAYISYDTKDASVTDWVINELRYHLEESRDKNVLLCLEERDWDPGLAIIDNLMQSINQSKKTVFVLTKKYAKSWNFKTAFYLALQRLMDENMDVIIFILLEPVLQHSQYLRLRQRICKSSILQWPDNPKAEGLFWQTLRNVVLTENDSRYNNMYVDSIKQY
- assay name: TLR8 inhibition reporter assay (HEK-Blue cells, SEAP reporter, R848 stimulation)
- test parameters: HEK-Blue cells overexpressing human TLR8, SEAP reporter, R848 15.9 μM
pIC50: −log10 of the molar value.

{"compound": "Cc1cc(-c2[nH]c3ccc(C4CCN(Cc5ncn(C)n5)CC4)cc3c2C(C)C)cn2nncc12 [Example 881]", "target or system": "human TLR8 (Homo sapiens, UniProt Q9NR97)", "pIC50": "6.00 to 7.00"}
{"compound": "CC(C)c1c(-c2cn(C)c3ncncc23)[nH]c2ccc(C3CCN(C4CCOCC4)CC3)cc12 [Example 688]", "target or system": "human TLR8 (Homo sapiens, UniProt Q9NR97)", "pIC50": "> 7.00"}
{"compound": "CCc1c(-c2cccc3c2cnn3C)[nH]c2ccc(C3CCN(C(=O)CN[C@H]4CC[C@@H](N)CC4)CC3)cc12 [Example 519]", "target or system": "human TLR8 (Homo sapiens, UniProt Q9NR97)", "pIC50": "< 4.30"}
{"compound": "CC(C)c1c(-c2ccnc3c2ccn3S(C)(=O)=O)[nH]c2ccc(C3CCNCC3)cc12 [Example 3]", "target or system": "human TLR8 (Homo sapiens, UniProt Q9NR97)", "pIC50": "> 7.00"}
{"compound": "COc1cc(-c2[nH]c3ccc(C4CCN(C(=O)CN(C)C)CC4)cc3c2C(C)C)cc2ncnn12 [Example 532]", "target or system": "human TLR8 (Homo sapiens, UniProt Q9NR97)", "pIC50": "> 7.00"}
{"compound": "CC(C)c1c(-c2ccnc3[nH]ncc23)[nH]c2ccc(C3CCN(C4CCNCC4O)CC3)cc12 (stereo not drawn) [Example 804]", "target or system": "human TLR8 (Homo sapiens, UniProt Q9NR97)", "pIC50": "> 7.00"}
{"compound": "Cc1cc(-c2[nH]c3ccc(C4CCN(CC(C)(C)O)CC4)cc3c2C(C)C)cc2ncnn12 [Example 756]", "target or system": "human TLR8 (Homo sapiens, UniProt Q9NR97)", "pIC50": "> 7.00"}
{"compound": "CC(C)c1c(-c2ccc3cnnn3c2)[nH]c2ccc(C3CCNCC3)cc12 [Example 79]", "target or system": "human TLR8 (Homo sapiens, UniProt Q9NR97)", "pIC50": "6.00 to 7.00"}
{"compound": "CC(C)c1c(-c2ccnc3[nH]ncc23)[nH]c2ccc(C3CCN(C4CCCNC4)CC3)cc12 (stereo not drawn) [Example 653]", "target or system": "human TLR8 (Homo sapiens, UniProt Q9NR97)", "pIC50": "> 7.00"}
{"compound": "CC(C)c1c(-c2cn(C)c3ncccc23)[nH]c2ccc(C3CCN(Cc4cnn[nH]4)CC3)cc12 [Example 877]", "target or system": "human TLR8 (Homo sapiens, UniProt Q9NR97)", "pIC50": "> 7.00"}
{"compound": "CC(C)c1c(-c2cnc3nccn3c2)[nH]c2ccc(C3CCN(CC(C)(C)O)CC3)cc12 [Example 761]", "target or system": "human TLR8 (Homo sapiens, UniProt Q9NR97)", "pIC50": "6.00 to 7.00"}
{"compound": "CC(C)c1c(-c2ccnc3[nH]ncc23)[nH]c2cc(F)c(C3CCN(CC4CCNC4)CC3)cc12 (stereo not drawn) [Example 853]", "target or system": "human TLR8 (Homo sapiens, UniProt Q9NR97)", "pIC50": "> 7.00"}
{"compound": "CC(C)c1c(-c2cnc3c(cnn3C)c2)[nH]c2ccc(C3CCN(CC(=O)N(C)C)CC3)cc12 [Example 367]", "target or system": "human TLR8 (Homo sapiens, UniProt Q9NR97)", "pIC50": "> 7.00"}
{"compound": "CC(=O)N1CCC(C(=O)N2CCC(c3ccc4[nH]c(-c5ccnc6[nH]ncc56)c(C(C)C)c4c3)CC2)CC1 [Example 646]", "target or system": "human TLR8 (Homo sapiens, UniProt Q9NR97)", "pIC50": "> 7.00"}
{"compound": "CCOc1cc(-c2[nH]c3ccc(C4CCN(CC(=O)NC)CC4)cc3c2C(C)C)cc2ncnn12 [Example 351]", "target or system": "human TLR8 (Homo sapiens, UniProt Q9NR97)", "pIC50": "> 7.00"}

Source of measurements: patent US11739098B2
